# assay_protocol: qHTS profiling for inhibitors of Plasmodium falciparum proliferation (AID 504749); further: nearly all actives have a fitted effect of over 60% in size;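 on activity, negative = inhibition: 0% = DMSO vehicle and full inhibition = artemisinin control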
# condition: P. falciparum in erythrocytes, SYBR Green DNA, 72 h; at 28.7 µM (top of the series); parasite line A
Inconclusive results are not listed.
reported_metric: activity, negative = inhibition (%)
Use % as the unit, but write only the number.

Entry Cc1[nH]c(=O)c(C#N)cc1-c1ccncc1 has what activity, negative = inhibition?
-21.8

Reported activity, negative = inhibition for COc1ccc2nc(S(=O)Cc3ncc(C)c(OC)c3C)[nH]c2c1 (centres undefined) : what is it?
-18.6

Return reported activity, negative = inhibition; argument: CC(=O)Oc1ccccc1C(=O)O
3.3

I would be grateful if you could share the reported activity, negative = inhibition for NC[C@H](O)c1ccc(O)c(O)c1 .
5.08

Consider the compound Cc1cn[nH]c1 and give its measured activity, negative = inhibition.
7.67

// returns reported activity, negative = inhibition for input CCCc1nc2c(C)cc(-c3nc4ccccc4n3C)cc2n1Cc1ccc(-c2ccccc2C(=O)O)cc1
-11.3

Fill in the blank: the reported activity, negative = inhibition of Cc1c(C)c2c(c(C)c1O)CCC(C)(COc1ccc(CC3SC(=O)NC3=O)cc1)O2 (centres undefined) is ____.
-7.46

Which activity, negative = inhibition is reported for this compound? O=NN(CCCl)C(=O)NCCCl
-1.48

Name the reported activity, negative = inhibition value associated with the compound CNC[C@H](O)c1cccc(O)c1
6.65

###

# Test system: ECU
# assay_protocol: qHTS profiling for inhibitors of Plasmodium falciparum proliferation (AID 504749); further: nearly all actives have a fitted effect of over 60% in size; further: potency means the concentration at half of the fitted maximal effect
# condition: P. falciparum in erythrocytes, SYBR Green DNA, 72 h; series mostly up to 28.7 µM
Records with an inconclusive call do not appear. The source made the active and inactive calls. The call rests on the fitted dose curve; in most records, active means well fitted inhibition curve with a large enough effect; inconclusive means small, poorly fitted or top-dose-only effect; inactive means flat fitted curve, though single readings scatter.
reported_metric: Potency

// worked examples, Potency included
>>> measurement("COc1ccc2nc(S(=O)Cc3ncc(C)c(OC)c3C)[nH]c2c1 (configuration not stated)")
"inactive"
>>> measurement("Cc1[nH]c(=O)c(C#N)cc1-c1ccncc1")
"inactive"
>>> measurement("Cc1ccc(N(CC2=NCCN2)c2cccc(O)c2)cc1")
"inactive"
>>> measurement("N[C@@H]1CONC1=O")
"inactive"
>>> measurement("CC(c1cc2ccccc2s1)N(O)C(N)=O (configuration not stated)")
"inactive"

Item NCCc1ccc(O)c(O)c1 has what recorded Potency?
inactive

# get_value(readout='Potency', item= CCCCNc1cc(C(=O)O)cc(S(N)(=O)=O)c1Oc1ccccc1 )
inactive

What value of measured Potency is listed for Cc1[nH]c(=O)c(C#N)cc1-c1ccc2nccn2c1 ?
inactive

Please report the recorded Potency for CNC[C@H](O)c1cccc(O)c1 .
inactive

For the compound Cn1cnc([N+](=O)[O-])c1Sc1ncnc2nc[nH]c12 , what Potency is on record?
8.91 µM (active)

Could you share which Potency value was measured for Cc1ccccc1C(OCCN(C)C)c1ccccc1 (configuration not stated) ?
inactive

###

# assay_protocol: Quantitative High-Throughput drug screen in 47 multiple myeloma cell lines against the NCATS MIPE library collection: JIM1_ECACC cell viability assay (AID 1918964)
# condition: JIM1 myeloma viability, CellTiter-Glo ATP luminescence, 48 h; series mostly up to 45.8 µM
Results filed as inconclusive are left out. Active and inactive are the calls of the source. Calls come from the whole dose curve; as a rule, active = well fitted cell-killing curve with a large enough effect; inconclusive = small, poorly fitted or top-dose-only effect, or effect the other way; inactive = no such curve, though single readings can be large or run the other way.
Classes to choose from: yes = active, no = inactive

// return assay outcome for Cc1[nH]c(=O)c(C#N)cc1-c1ccc2nccn2c1
no

Which outcome did this test record for the compound CN(C)c1ccc(Nc2nc(N)n(C(=O)c3c(F)cccc3F)n2)cc1 ?
yes

Called result for O=NN(CCCl)C(=O)NCCCl
no

Tell me the recorded outcome of this test for NS(=O)(=O)c1cc2c(cc1Cl)NC=NS2(=O)=O .
no

In this assay, the call recorded for O=C(Nc1nc2ccccc2n1CCN1CCOCC1)c1cccc([N+](=O)[O-])c1 was what?
yes

// return assay outcome for OCCC#Cc1nc(-c2ccc(F)cc2)c(-c2ccncc2)n1CCCc1ccccc1
yes

# outcome recorded in this test, key = CCn1cc(C(=O)O)c(=O)c2cc(F)c(N3CCNC(C)C3)c(F)c21 (stereo not given)
no

What call does the record list for CCc1ccc(CCOc2ccc(CC3SC(=O)NC3=O)cc2)nc1 (stereo not given) ?
no

I would be grateful if you could indicate the recorded call for COc1cc2c(cc1OC)CN(CCc1ccc(NC(=O)c3cccc4c(=O)c5cccc(OC)c5[nH]c34)cc1)CC2 .
no

Kindly provide the recorded test outcome for the following compound: COc1ccc(-c2ccc3c(N4CCOCC4)nc(N4C[C@@H](C)O[C@@H](C)C4)nc3n2)cc1CO
yes

Dear colleague, could you share the recorded outcome for CCn1c(-c2nonc2N)nc2cnc(Oc3cccc(NC(=O)c4ccc(OCCN5CCOCC5)cc4)c3)cc21 when you have a moment?
yes

Outcome? CN1CCN(CCCN2c3ccccc3Sc3ccc(C(F)(F)F)cc32)CC1
no

Tell me the assay call for COc1nc(-c2ccc3c(c2)OCO3)n(-c2ccc(NC(=O)CSc3ccccc3)cc2)n1 please.
no

Can you look up the reported call for Oc1ccc(C2CNCCc3c2cc(O)c(O)c3Cl)cc1 (stereo not given) for me?
no

Please indicate how the test categorized Cc1c(CCOc2ccc(C(=O)O)cc2)c2cc(Cl)ccc2n1C(c1ccccc1)c1ccccc1 .
no
